# TESTED_ON: Concanavalin-A (Canavalia ensiformis)
# EXPERIMENTAL_DETAILS: ConA small-molecule binders, primary screen, artefact control for SMM control protein annotation, biochemical, small-molecule microarray, Alexa647 label, 635 nm (AID 1127);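 note: z combines 667 nm emission intensity with signal-to-noise across three replicate slides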
# CONDITION_NOTES: ConA-A647 binding fluorescence, higher = more signal
METRIC: composite z-score

Data request: Consider the molecule C[C@@H]1CC[C@H]2C(=O)O[C@H](COc3ccc(C(C)(C)C)cc3)CN2[C@H]1c1ccc(Br)cc1 and give its measured composite z-score.
Data returned: -0.212

Data request: Consider the molecule O=C1[C@H]2[C@H]3[C@H](O)[C@H](O)CC(=NOCc4ccccc4)[C@@H]3CC[C@H]2C(=O)N1C1CCCCC1 and give its measured composite z-score.
Data returned: -0.0593

Data request: Consider the molecule Cc1ccc(S(=O)(=O)N[C@@H]2COC(=O)[C@H](C)COC(=O)CC=C[C@H]2C)cc1 and give its measured composite z-score.
Data returned: -0.0405

Data request: Consider the molecule C#CCCCON=C1C[C@@H](O)[C@@H](O)[C@@H]2[C@@H]3C(=O)N(c4cccc(Oc5ccccc5)c4)C(=O)[C@@H]3CC[C@@H]12 and give its measured composite z-score.
Data returned: 0.884

Data request: Consider the molecule CCOC(=O)NN=C1C[C@@H](O)[C@@H](O)[C@@H]2[C@@H]3C(=O)N(C4CCCCC4)C(=O)[C@@H]3CC[C@@H]12 and give its measured composite z-score.
Data returned: 0.616
